Target Under Test: recombinant human GITR (Cat No. 13643-H08H, Lot No. LC12JA2509, Sino Biological) (human) (UniProt Q9Y5U5)
Assay Method Text: SPR Biacore 8K, single-cycle kinetics, IgG in supernatant captured on Protein A, GITR as analyte
Entries and their kon values follow.

Binder: anti-GITR 51B VH1/VL4 humanized antibody (human IgG1, kappa) (antibody, V domains shown) VH: QVQLVQSGAELKKPGASVKLSCKTTGYRFTGYWIEWVRQPPGKGLEWIGEILPGSGATYYSENFKGKATITADTSTNTAYMEVSSLRSGDSAIYYCARKGGYYAMDYWGQGTSVTVSS VL: EIVLTQSPATLSLSPGERATLSCTASSSVSSSYFHWYQQKPGKAPKLWIYSTSNLQSGVPDRFSGSGSGTDYTLTISSLQAEDVATYYCHLYHRSPRTFGGGTKVEIKR
kon (M⁻¹ s⁻¹): 469000
--
Binder: anti-GITR 51B VH0/VL0 chimeric antibody (human IgG1, kappa) (antibody, V domains shown, Chimeric antibody; also called VH0/Vk0; 51B VH0/Vk0) VH: QVQLQQSGAELMKPGASVKLSCKTTGYRFTGYWIEWVKQRPGHGLEWIGEILPGSGATYYSENFKGKATFTADTSSNTAYMQVSSLTTGDSAIYYCARKGGYYAMDYWGQGTSVTVSS VL: QIVLTQSPAIMSASLGERVTMTCTASSSVSSSYFHWYQQKPGSSPKLWIYSTSNLASGVPARFSGSGSGTSYSLTVSSLEAEDAATYYCHLYHRSPRTFGGGTTLDIKR
kon (M⁻¹ s⁻¹): 590000
--
Binder: anti-GITR 51B VH2/VL4 humanized antibody (human IgG1, kappa) (antibody, V domains shown) VH: QVQLVQSGAEVKKPGASVKLSCKTTGYRFTGYWIEWVRQPPGKGLEWIGEILPGSGATYYSENFKGKATITADTSTNTAYMEVSSLRSEDTAIYYCARKGGYYAMDYWGQGTLVTVSS VL: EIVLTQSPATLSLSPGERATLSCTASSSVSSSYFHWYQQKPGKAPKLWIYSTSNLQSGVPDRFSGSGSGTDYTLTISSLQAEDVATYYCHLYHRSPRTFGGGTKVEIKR
kon (M⁻¹ s⁻¹): 502000

Sourced from patent EP4339209A1
